The reported numbers originate from patent US20230138395A1.

# Tested on: C. krusei strains
# assay: MIC testing (CLSI M27-A3)
# Assay type: cell-based
# condition description: C. krusei strains; in µg/mL
Here, each record is paired with measured MIC Range data.

# input Respond only with MIC Range recorded for CC[C@H](C)C[C@H](C)CCCCCCCCC(=O)N[C@H]1C[C@@H](O)[C@@H](NCCN)NC(=O)[C@@H]2[C@@H](O)CCN2C(=O)[C@H]([C@H](O)CCN)NC(=O)[C@H]([C@H](O)[C@@H](O)c2ccc(O)cc2)NC(=O)[C@@H]2C[C@@H](O)CN2C(=O)[C@H]([C@@H](C)O)NC1=O
# output 0.5-16

# input Respond only with MIC Range recorded for C[C@@H]1[C@H](O)[C@@H](C)/C=C/C=C/C=C/C=C/C=C/C=C/C=C/[C@H](O[C@@H]2O[C@H](C)[C@@H](O)[C@H](N)[C@@H]2O)C[C@@H]2O[C@](O)(C[C@@H](O)[C@H](O)CC[C@@H](O)C[C@@H](O)C[C@@H](O)CC(=O)O[C@H]1C)C[C@H](O)[C@H]2C
# output 0.5-2

# input Respond only with MIC Range recorded for OC(Cn1cncn1)(Cn1cncn1)c1ccc(F)cc1F
# output 2-32

# input Respond only with MIC Range recorded for C[C@@H](c1ncncc1F)[C@](O)(Cn1cncn1)c1ccc(F)cc1F
# output <0.06-0.5

# input Respond only with MIC Range recorded for C[C@@H]1[C@H](O)[C@@H](C)/C=C/C=C/C=C/C=C/C=C/C=C/C=C/[C@H](O[C@@H]2O[C@H](C)[C@@H](O)[C@H](N)[C@@H]2O)C[C@@H]2O[C@](O)(C[C@@H](O)C[C@@H](O)[C@H](O)CC[C@@H](O)C[C@@H](O)CC(=O)O[C@H]1C)C[C@H](O)[C@H]2C(=O)O
# output 0.5-1
